- System: Bacteroides fragilis ATCC 25285
- assay.protocol: Drug sensitivity of quality-control strain, micro broth dilution method (CLSI)
- Format: cell-based
- experimental.parameters: ATCC25285
Under this convention, Criterion met denotes MIC strictly below 30 µg/mL and Criterion not met denotes MIC at or above 30 µg/mL.

>  <structure.string>
O=C(N[C@H](CO)[C@H](O)c1ccc([N+](=O)[O-])cc1)C(Cl)Cl

>  <target.system>
Bacteroides fragilis ATCC 25285

>  <assigned.label>
Criterion met

$$$$
>  <structure.string>
CO/N=C(\C(=O)N[C@@H]1C(=O)N2C(C(=O)O)=C(CSc3nc(=O)c(=O)[nH]n3C)CS[C@H]12)c1csc(N)n1

>  <target.system>
Bacteroides fragilis ATCC 25285

>  <assigned.label>
Criterion not met

$$$$
>  <structure.string>
C[C@@H](O)[C@H]1C(=O)N2C(C(=O)O)=C(S[C@@H]3CN[C@H](C(=O)N(C)C)C3)[C@H](C)[C@H]12

>  <target.system>
Bacteroides fragilis ATCC 25285

>  <assigned.label>
Criterion met

$$$$
>  <structure.string>
CO/N=C(\C(=O)N[C@@H]1C(=O)N2C(C(=O)O)=C(COC(C)=O)CS[C@H]12)c1csc(N)n1

>  <target.system>
Bacteroides fragilis ATCC 25285

>  <assigned.label>
Criterion not met

$$$$
>  <structure.string>
CN(C)[C@@H]1C(O)=C(C(N)=O)C(=O)[C@@]2(O)C(O)=C3C(=O)c4c(O)cccc4[C@@](C)(O)[C@H]3C[C@@H]12

>  <target.system>
Bacteroides fragilis ATCC 25285

>  <assigned.label>
Criterion met

$$$$
>  <structure.string>
CC1(C)S[C@@H]2[C@H](NC(=O)[C@H](N)c3ccccc3)C(=O)N2[C@H]1C(=O)O

>  <target.system>
Bacteroides fragilis ATCC 25285

>  <assigned.label>
Criterion not met

$$$$

Reference source for all entries: patent US12606795B2
